system-name: KAT7 (Homo sapiens (Human), UniProt O95251)
Sequence (O95251 whole entry): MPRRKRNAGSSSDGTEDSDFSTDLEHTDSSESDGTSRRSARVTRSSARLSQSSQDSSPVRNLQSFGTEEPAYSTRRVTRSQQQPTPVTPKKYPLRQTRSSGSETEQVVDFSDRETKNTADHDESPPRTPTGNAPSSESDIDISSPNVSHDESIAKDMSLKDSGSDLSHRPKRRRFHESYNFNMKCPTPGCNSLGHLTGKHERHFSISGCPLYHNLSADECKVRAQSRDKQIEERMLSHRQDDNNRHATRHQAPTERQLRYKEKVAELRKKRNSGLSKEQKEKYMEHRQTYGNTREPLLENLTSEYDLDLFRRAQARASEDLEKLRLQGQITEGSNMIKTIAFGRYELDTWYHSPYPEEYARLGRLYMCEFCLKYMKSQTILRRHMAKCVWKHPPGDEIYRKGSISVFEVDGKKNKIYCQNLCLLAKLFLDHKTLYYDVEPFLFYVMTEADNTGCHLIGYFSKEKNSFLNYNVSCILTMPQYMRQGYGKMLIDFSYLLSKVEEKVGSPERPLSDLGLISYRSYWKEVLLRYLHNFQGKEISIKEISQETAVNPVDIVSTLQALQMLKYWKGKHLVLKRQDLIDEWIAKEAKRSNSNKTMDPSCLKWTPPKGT
method-summary: KAT assay (SAMDI mass spectrometry), KAT7;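 also: Baculovirus-expressed enzyme acetylating a histone peptide at room temperature, percent conversion from product and substrate peak areas, Ki from a Morrison tight-binding competitive fit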
Format: biochemical
experimental-setup: read-out: KAT7 Ki at 1 μM AcCoA
pKi: −log10 of the molar value.
metric: pKi

In [3]: df
Out[3]:
                               smiles_input  metric  numeric_result
0  COc1cccc(OC)c1S(=O)(=O)Nc1noc2cc(Cn3cccn3)c(F)c(OC)c12     pKi            7.31

A = COc1cccc(OC)c1S(=O)(=O)Nc1noc2cc(Cc3cocn3)cc(OC)c12
B = CNC(=O)c1ccc(S(=O)(=O)Nc2noc3cc(Cn4cccn4)cc(OC)c23)cc1
-- ask Smaller pKi value, A vs B ? Your answer should be the label of the entry you select.
-- reply B
